test system: MDA-MB-231; assay: NCI tumour cell line growth inhibition, 48 h
Calls of active or inactive are those of the source. No stated cut-off is given here; in the data, active = GI50 up to about 1.1 µM and inactive = higher.

molecule: CCCCOP(=O)(OCCCC)C(NS(=O)(=O)c1ccccc1)(C(=O)OCC)C(F)(F)F (stereo not given)
target of assay: MDA-MB-231
GI50: 15.3 µM (inactive)
//
molecule: C#CC(=O)OCC#CCOC(=O)C#C
target of assay: MDA-MB-231
GI50: 25.5 µM (inactive)
//
molecule: Clc1ccc(CCNC2(c3cc4ccccc4s3)CCCCC2)cc1Cl
target of assay: MDA-MB-231
GI50: 21.1 µM (inactive)
//
molecule: CN1C(=O)N/C(=C\c2ccc(S(=O)(=O)NN)cc2)C1=O
target of assay: MDA-MB-231
GI50: > 100 µM (inactive)
//
molecule: Cn1c2ccccc2c(=S)c2ccccc21
target of assay: MDA-MB-231
GI50: > 100 µM (inactive)
//
molecule: CS(=O)(=O)OCC1OC(n2ccc(NC(=O)c3ccccc3)nc2=O)CC1OS(C)(=O)=O (stereo not given)
target of assay: MDA-MB-231
GI50: > 100 µM (inactive)
//
molecule: Cc1cn(C2CC(O)C(Cn3cc(Cn4nc(Br)c(=O)[nH]c4=O)nn3)O2)c(=O)[nH]c1=O (stereo not given)
target of assay: MDA-MB-231
GI50: > 100 µM (inactive)
//
molecule: c1c[nH]c(CN2CCOCC2)n1
target of assay: MDA-MB-231
GI50: > 100 µM (inactive)
//
molecule: CC(C)(C)[Si](C)(C)OCC1OC(n2ccc(=O)[nH]c2=O)C(O[Si](C)(C)C(C)(C)C)[C@]12O[C@@H]2CO (stereo not given in full)
target of assay: MDA-MB-231
GI50: 19.5 µM (inactive)
//
molecule: CS(=O)(=O)Nc1ccc(N2Cc3c[nH]c4ccc5nccc2c5c34)cc1
target of assay: MDA-MB-231
GI50: 13.6 µM (inactive)

====

test system: PC-3; experiment: NCI tumour cell line growth inhibition, 48 h
Active and inactive are the calls of the source. Rule as the data show it: active = GI50 up to about 1.1 µM and inactive = higher. Non-standard residues stand in square brackets, D forms with d. Residues, ends and D or L forms follow the SMILES beside them. ξ: configuration not given here. *: point of attachment. ξF = NC(Cc1ccccc1)C(=O)O; Cbz = O=C(OCc1ccccc1)*

compound: CSc1nc2ccccc2c(=O)n1-c1cccc(C)c1
GI50: 46.6 µM (inactive)
//
compound: Cc1c(C)c(S(=O)(=O)N(CCCCCN)OCCCN)c(C)c2c1OC(C)(C)CC2
GI50: 4.06 µM (inactive)
//
compound: CCOC(=O)CNC(=O)C(Cc1ccccc1)NC(=O)OCc1ccccc1 (configuration not stated) (Cbz-[ξF]-Gly-OEt)
GI50: > 100 µM (inactive)
//
compound: CN1N=C(c2ccncc2)OC1c1ccc(Cl)c(Cl)c1 (configuration not stated)
GI50: > 100 µM (inactive)
//
compound: CCc1nc(N)nc(N)c1-c1ccc(Cc2ccccc2)c([N+](=O)[O-])c1
GI50: < 0.0353 µM (active)
//
compound: O=C1CS(=O)(=O)C(c2cccc(Oc3ccccc3)c2)N1C1CC1 (configuration not stated)
GI50: 25.8 µM (inactive)
//
compound: N=C1/C(=C/c2ccco2)C(=O)N=C2SC=NN12
GI50: > 100 µM (inactive)
//
compound: C[N+](C)(C)C1(C(=O)[O-])CC1
GI50: > 100 µM (inactive)
//
compound: O=C(O)c1cccc(OCCO)c1
GI50: > 100 µM (inactive)
//
compound: Nc1ccc(/N=N\c2ccc(-c3ccc(O)cc3)cc2)c2ccc(S(=O)(=O)O)cc12
GI50: > 100 µM (inactive)
//
compound: [O-][n+]1onc2c3nn(-c4ccccc4)nc3ccc21
GI50: > 83.2 µM (inactive)
//
compound: C[N+](C)(CCO)CCN1c2ccccc2Sc2ccccc21
GI50: > 10 µM (inactive)
